# test-conditions: in isopropanol, 308.15 K
endpoint-label: solubility (mole fraction)
Give the figure by itself; no unit, no explanation.

Consider the compound `CC[C@H](C)[C@H]1O[C@]2(C=C[C@@H]1C)C[C@@H]1C[C@@H](C/C=C(\C)[C@@H](O[C@H]3C[C@H](OC)[C@@H](O[C@H]4C[C@H](OC)[C@@H](O)[C@H](C)O4)[C@H](C)O3)[C@@H](C)/C=C/C=C3\CO[C@@H]4[C@H](O)C(C)=C[C@@H](C(=O)O1)[C@]34O)O2` and give its measured solubility (mole fraction). 0.0113

---

# test-conditions: in acetone, 308.15 K
endpoint-label: solubility (mole fraction)
Give the figure by itself; no unit, no explanation.

Consider the compound `CC[C@H](C)[C@H]1O[C@]2(C=C[C@@H]1C)C[C@@H]1C[C@@H](C/C=C(\C)[C@@H](O[C@H]3C[C@H](OC)[C@@H](O[C@H]4C[C@H](OC)[C@@H](O)[C@H](C)O4)[C@H](C)O3)[C@@H](C)/C=C/C=C3\CO[C@@H]4[C@H](O)C(C)=C[C@@H](C(=O)O1)[C@]34O)O2` and give its measured solubility (mole fraction). 0.0175

---

# test-conditions: in acetone, 298.15 K
endpoint-label: solubility (mole fraction)
Give the figure by itself; no unit, no explanation.

Consider the compound `CC[C@H](C)[C@H]1O[C@]2(C=C[C@@H]1C)C[C@@H]1C[C@@H](C/C=C(\C)[C@@H](O[C@H]3C[C@H](OC)[C@@H](O[C@H]4C[C@H](OC)[C@@H](O)[C@H](C)O4)[C@H](C)O3)[C@@H](C)/C=C/C=C3\CO[C@@H]4[C@H](O)C(C)=C[C@@H](C(=O)O1)[C@]34O)O2` and give its measured solubility (mole fraction). 0.0134

---

# test-conditions: in isopropanol, 293.15 K
endpoint-label: solubility (mole fraction)

Consider the molecule `CC[C@H](C)[C@H]1O[C@]2(C=C[C@@H]1C)C[C@@H]1C[C@@H](C/C=C(\C)[C@@H](O[C@H]3C[C@H](OC)[C@@H](O[C@H]4C[C@H](OC)[C@@H](O)[C@H](C)O4)[C@H](C)O3)[C@@H](C)/C=C/C=C3\CO[C@@H]4[C@H](O)C(C)=C[C@@H](C(=O)O1)[C@]34O)O2` and give its measured solubility (mole fraction). 0.0071

---

# test-conditions: in acetone, 313.15 K
endpoint-label: solubility (mole fraction)
Give the figure by itself; no unit, no explanation.

Consider the molecule `CC[C@H](C)[C@H]1O[C@]2(C=C[C@@H]1C)C[C@@H]1C[C@@H](C/C=C(\C)[C@@H](O[C@H]3C[C@H](OC)[C@@H](O[C@H]4C[C@H](OC)[C@@H](O)[C@H](C)O4)[C@H](C)O3)[C@@H](C)/C=C/C=C3\CO[C@@H]4[C@H](O)C(C)=C[C@@H](C(=O)O1)[C@]34O)O2` and give its measured solubility (mole fraction). 0.0194

---

# test-conditions: in isopropanol, 283.15 K
endpoint-label: solubility (mole fraction)

Consider the compound `CC[C@H](C)[C@H]1O[C@]2(C=C[C@@H]1C)C[C@@H]1C[C@@H](C/C=C(\C)[C@@H](O[C@H]3C[C@H](OC)[C@@H](O[C@H]4C[C@H](OC)[C@@H](O)[C@H](C)O4)[C@H](C)O3)[C@@H](C)/C=C/C=C3\CO[C@@H]4[C@H](O)C(C)=C[C@@H](C(=O)O1)[C@]34O)O2` and give its measured solubility (mole fraction). 0.00481
